Please respond with reported T/C for every item in the list.
System: L1210 leukemia ip in BDF1 mice, survival T/C
test-method-notes: NCI In Vivo Anticancer Drug Screen. Data for tumor model L1210 Leukemia (intraperitoneal) in B6D2F1 (BDF1) mice
particulars: endpoint: mean survival time; dose: 400.0 mg/kg/injection; schedule: Q04DX002 (ip); vehicle: Klucel (hydroxypropylcellulose) (HPC); higher = longer survival
Inconclusive results and toxic doses are left out.

Endpoint output: T/C of Cc1cccc(NC(=O)c2ccc(Cl)cc2Cl)n1 (tested in a mixture with another compound) . Value?
92 % of control

Endpoint output: T/C of CCCCCCCCCCCCCCCCCCNC(=O)NCCN(C)c1ccccc1 . Value?
102 % of control

Endpoint output: T/C of CCO/C(C)=N/OC(=O)c1ccccc1 . Value?
94 % of control

Endpoint output: T/C of COc1ccc(C(=O)C(=O)c2ccc(OC)cc2)cc1 . Value?
95 % of control

Endpoint output: T/C of O=Cc1ccc(OCc2ccccc2)cc1 . Value?
92 % of control

Endpoint output: T/C of CCOC(=O)c1c(/N=C/c2ccc(N(C)C)cc2)sc2c1CCCC2 . Value?
104 % of control
